// merged dataset of pIC50 values, system = Focal adhesion kinase 1 (Homo sapiens), multiple refs
Sequence (Q05397 whole entry): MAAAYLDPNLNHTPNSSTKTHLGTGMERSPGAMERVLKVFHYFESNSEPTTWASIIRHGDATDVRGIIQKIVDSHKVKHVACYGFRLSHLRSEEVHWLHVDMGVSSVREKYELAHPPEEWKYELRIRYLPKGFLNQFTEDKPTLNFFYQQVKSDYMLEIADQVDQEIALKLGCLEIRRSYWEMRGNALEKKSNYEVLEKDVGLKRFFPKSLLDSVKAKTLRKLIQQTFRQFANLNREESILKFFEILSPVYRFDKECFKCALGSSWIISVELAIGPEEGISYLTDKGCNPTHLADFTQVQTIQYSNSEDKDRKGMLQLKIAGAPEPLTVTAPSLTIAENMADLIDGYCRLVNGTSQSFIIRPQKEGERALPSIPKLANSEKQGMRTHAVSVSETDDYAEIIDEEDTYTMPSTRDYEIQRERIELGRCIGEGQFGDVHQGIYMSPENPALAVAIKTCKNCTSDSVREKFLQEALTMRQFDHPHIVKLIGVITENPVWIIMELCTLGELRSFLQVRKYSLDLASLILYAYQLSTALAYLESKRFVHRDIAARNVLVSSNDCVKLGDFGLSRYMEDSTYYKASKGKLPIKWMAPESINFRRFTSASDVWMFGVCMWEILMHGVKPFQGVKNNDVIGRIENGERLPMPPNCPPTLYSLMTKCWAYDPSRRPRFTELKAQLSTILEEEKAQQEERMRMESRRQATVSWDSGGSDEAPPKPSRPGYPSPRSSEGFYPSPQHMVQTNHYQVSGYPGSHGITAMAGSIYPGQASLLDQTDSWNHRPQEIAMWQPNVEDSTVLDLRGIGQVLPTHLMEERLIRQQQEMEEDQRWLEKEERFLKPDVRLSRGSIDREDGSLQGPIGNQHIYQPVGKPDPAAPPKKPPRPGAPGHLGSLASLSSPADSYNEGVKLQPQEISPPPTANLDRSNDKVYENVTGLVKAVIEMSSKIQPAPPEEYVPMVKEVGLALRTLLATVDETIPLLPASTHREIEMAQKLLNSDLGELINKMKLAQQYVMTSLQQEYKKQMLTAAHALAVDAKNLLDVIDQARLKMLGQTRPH
// pIC50 is dimensionless: -log10 of concentration (M)

Enquiry: Record lookup: for Focal adhesion kinase 1 (Homo sapiens), what pIC50 belongs to CNC(=O)c1ccccc1Nc1nc(Nc2cccc(CNC(C)=O)c2)nc2[nH]cc(F)c12 ?
Return: 7.85

Enquiry: Next: CN(c1ncccc1CNc1nc(Nc2ccc(N3CCOCC3)cc2)nc2[nH]cc(F)c12)S(C)(=O)=O
Return: 7.59

Enquiry: Here is the next compound: COC(=O)c1ccccc1Nc1nc(Nc2ccc(N3CCOCC3)cc2OC)nc2nccn12
Return: 6.43

Enquiry: Try the compound CNC(=O)c1ccccc1Cc1nc(Nc2cc(OC)c(OC)c(OC)c2)nc2nccn12
Return: 6.74

Enquiry: Moving on to COc1cc(N2CCOCC2)ccc1Nc1nc(Oc2cccc3c2C(=O)CC3)c2sccc2n1
Return: 6.95

Enquiry: Proceed to CNC(=O)c1ccccc1Nc1nc(Nc2ccc(N3CCOCC3)cc2OC)n2ccnc2n1
Return: 6.29

Enquiry: Also check COc1cc(N2CCN(C)CC2)ccc1Nc1ncc2c(n1)N(C)c1cn(C)nc1C(=O)N2
Return: 6.91

Enquiry: And for CNC(=O)c1ccccc1Nc1nc(Nc2ccc(CC(=O)OCCCCCCCOc3no[n+]([O-])c3S(=O)(=O)c3ccccc3)cc2)ncc1Cl ?
Return: 7.50

Enquiry: Same for COc1cc(N2CCC(N3CCN(C)CC3)CC2)ccc1Nc1nc(-n2cnc3ccccc32)c2cc[nH]c2n1
Return: 7.56

Enquiry: Next: COc1ccc2cc(-c3n[nH]c4cccnc34)[nH]c2c1
Return: 5.26

Enquiry: Ok, now Cc1cc2c(NCc3cccnc3N(C)S(C)(=O)=O)nc(Nc3ccc4c(c3)CC(=O)N4)nc2[nH]1
Return: 4.92

Enquiry: And what about the compound CNC(=O)c1cc(Oc2ccc(NC(=O)Nc3cc(C(C)(C)C)nn3-c3ccc4ncccc4c3)c(F)c2)ccn1 ?
Return: 6.60

Enquiry: Try this compound too: COc1cc(N2CCN(C)CC2)ccc1Nc1nc(Oc2cccc3c2C(=O)CC3)c2cc[nH]c2n1
Return: 8.41

Enquiry: Try the compound Cc1[nH]nc2c1N=C(c1ccccc1Cl)c1cc([N+](=O)[O-])ccc1N2
Return: 5.16

Enquiry: Continue with Cc1cc(Nc2nc(Oc3cccc4c3C(=O)CC4)c3cc[nH]c3n2)ccc1N1CCN(CC2CC2)CC1
Return: 8.38

Enquiry: Next compound: Cc1ccc(Oc2nc(Nc3ccc(N4CCC(N5CCN(C)CC5)CC4)cc3)nc3[nH]ccc23)c2c1CCC2=O
Return: 8.61

Enquiry: Also, CS(=O)(=O)Nc1ccccc1Nc1nc(Nc2ccc(C#N)cc2)n2ccnc2n1 please.
Return: 5.76

Enquiry: Next compound: O=C1CCc2cccc(Oc3nc(Nc4ccc(N5CCOCC5)cc4)nc4[nH]ccc34)c21
Return: 7.91

Enquiry: Also CN1CCN(C2CCN(c3ccc(Nc4nc(Oc5cccc6c5C(=O)CC6)c5cc[nH]c5n4)cc3)CC2)CC1 , if possible.
Return: 8.54

Enquiry: Queued: COc1cc(N2CCC(N3CCN(C)CC3)CC2)ccc1Nc1nc(-n2ccc3ccccc32)c2cc[nH]c2n1
Return: 6.84

Enquiry: Subsequent entry: COC(=O)c1ccccc1Nc1nc(Nc2cc(OC)c(OC)c(OC)c2)nc2nccn12
Return: 6.55

Enquiry: Note, next up: O=C1CN2C(=NN1)COc1ccccc12
Return: 3.81

Enquiry: Similarly, CS(=O)(=O)c1cccc(Nc2nccc(Nc3c(Cl)ccc4c3OCO4)n2)c1 ?
Return: 4.71

Enquiry: What would you report for O=C(NCCc1ccc(O)c(Br)c1)/C(Cc1cc(Br)c(O)c(Oc2ccc(CCNC(=O)/C(Cc3cc(Br)c(O)c(-c4cc(C/C(=N\O)C(=O)NCCc5ccc(O)c(Br)c5)cc(Br)c4O)c3)=N/O)cc2Br)c1)=N/O ?
Return: 5.46

Enquiry: Continue with Cc1nc([C@](C)(O)CO)sc1-c1cnc(N)c(O[C@H](C)c2cc(F)ccc2-n2nccn2)c1
Return: 7.80
